From: ChEMBL document CHEMBL1135007

Target: Peroxisome proliferator-activated receptor alpha (Homo sapiens)
Sequence (Q07869 whole entry): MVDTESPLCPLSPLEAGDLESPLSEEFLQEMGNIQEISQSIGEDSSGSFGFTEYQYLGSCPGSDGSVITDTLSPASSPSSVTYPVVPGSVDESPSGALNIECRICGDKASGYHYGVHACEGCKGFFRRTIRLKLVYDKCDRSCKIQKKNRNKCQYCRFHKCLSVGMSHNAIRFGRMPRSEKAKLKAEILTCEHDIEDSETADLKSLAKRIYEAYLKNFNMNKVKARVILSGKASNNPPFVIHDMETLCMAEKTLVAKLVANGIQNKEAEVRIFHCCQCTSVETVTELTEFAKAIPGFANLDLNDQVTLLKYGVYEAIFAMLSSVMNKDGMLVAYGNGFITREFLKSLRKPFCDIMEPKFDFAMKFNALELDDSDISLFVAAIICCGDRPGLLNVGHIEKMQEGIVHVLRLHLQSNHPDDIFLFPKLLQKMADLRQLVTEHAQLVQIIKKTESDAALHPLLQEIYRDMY
Test: Transactivation potency was measured by luciferase activity in Caco- 2/TC7 cells transiently co-transfected for the fusion-protein Gal4-PPAR alpha
pEC50: −log10 of the molar value.
Property Measured: pEC50

* O=C(Nc1ccc(-c2ccco2)cc1C(=O)O)c1ccc(Cl)cc1Cl | 5.00
* CSCCOc1ccc(NC(=O)c2ccc(Cl)cc2Cl)c(C(=O)O)c1 | 5.60
* O=C(Nc1ccc(OCCc2ccsc2)cc1C(=O)O)c1ccc(Cl)cc1Cl | 5.42

---

Biological target: Peroxisome proliferator-activated receptor gamma (Homo sapiens, UniProt P37231)
Sequence (P37231 whole entry): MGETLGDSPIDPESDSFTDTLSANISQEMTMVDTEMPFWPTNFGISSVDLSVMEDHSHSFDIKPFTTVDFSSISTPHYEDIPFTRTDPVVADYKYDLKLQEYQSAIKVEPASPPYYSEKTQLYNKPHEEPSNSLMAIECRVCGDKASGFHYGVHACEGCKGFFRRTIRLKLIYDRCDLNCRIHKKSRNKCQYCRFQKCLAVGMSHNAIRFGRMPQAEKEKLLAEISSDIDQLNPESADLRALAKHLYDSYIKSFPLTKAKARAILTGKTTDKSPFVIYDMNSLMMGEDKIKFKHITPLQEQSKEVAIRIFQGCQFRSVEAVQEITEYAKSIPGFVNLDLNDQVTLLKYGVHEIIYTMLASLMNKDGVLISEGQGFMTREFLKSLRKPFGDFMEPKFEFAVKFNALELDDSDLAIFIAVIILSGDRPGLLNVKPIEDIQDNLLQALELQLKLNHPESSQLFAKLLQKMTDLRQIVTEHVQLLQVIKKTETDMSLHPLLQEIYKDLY
Assay: Ligand binding affinity was determined by displacement of a tritiated tracer by the unlabeled compound to a GST-PPAR fusion protein for Peroxisome proliferator activated receptor gamma containing residues
// Ki lookup, one value per entry
Property Measured: Ki (nM)

* O=C(Nc1ccc(OCCc2ccsc2)cc1C(=O)O)c1ccc(Cl)cc1Cl | 600
* CCOc1cccc(-c2ccc(NC(=O)c3ccc(Cl)cc3Cl)c(C(=O)O)c2)c1 | 1200
* O=C(Nc1ccc(OCc2cccs2)cc1C(=O)O)c1ccc(Cl)cc1Cl | 400
* O=C(Nc1ccc(-c2cccc3cccnc23)cc1C(=O)O)c1ccc(Cl)cc1Cl | 700
* CSCCOc1ccc(NC(=O)c2ccc(Cl)cc2Cl)c(C(=O)O)c1 | 1600
* O=C(O)c1cccc(-c2ccc(NC(=O)c3ccc(Cl)cc3Cl)c(C(=O)O)c2)c1 | 1400

---

// EC50 lookup, one value per entry
biological target: Peroxisome proliferator-activated receptor alpha (Homo sapiens); experiment: Transactivation potency was measured by luciferase activity in Caco- 2/TC7 cells transiently co-transfected for the fusion-protein Gal4-PPAR alpha
Property Measured: EC50

• O=C(Nc1ccc(OCCc2cccs2)cc1C(=O)O)c1ccc(Cl)cc1Cl = > 100 µM
• O=C(Nc1ccc(Oc2ncccn2)cc1C(=O)O)c1ccc(Cl)cc1Cl = > 100 µM
• O=C(Nc1ccc(Oc2cncc(Cl)n2)cc1C(=O)O)c1ccc(Cl)cc1Cl = > 100 µM
• O=C(O)c1cccc(-c2ccc(NC(=O)c3ccc(Cl)cc3Cl)c(C(=O)O)c2)c1 = > 100 µM
• O=C(Nc1ccc(Oc2ccc([N+](=O)[O-])cn2)cc1C(=O)O)c1ccc(Cl)cc1Cl = > 100 µM
• CCOc1ccc(COc2ccc(NC(=O)c3ccc(Cl)cc3Cl)c(C(=O)O)c2)cc1 = > 100 µM
• O=C(Nc1ccc(-c2ccsc2)cc1C(=O)O)c1ccc(Cl)cc1Cl = 12 µM
• Cc1ccc(NC(=O)c2ccc(Cl)cc2Cl)c(C(=O)O)c1 = 9.5 µM
• O=C(Nc1ccc(OCc2cccs2)cc1C(=O)O)c1ccc(Cl)cc1Cl = 5 µM
• O=C(Nc1ccc(-c2cccc3cccnc23)cc1C(=O)O)c1ccc(Cl)cc1Cl = > 100 µM

---

target: Peroxisome proliferator-activated receptor gamma (Homo sapiens); experiment: Ligand binding affinity was determined by displacement of a tritiated tracer by the unlabeled compound to a GST-PPAR fusion protein for Peroxisome proliferator activated receptor gamma containing residues
pKi: −log10 of the molar value.
Kindly return condition met if reported pKi is no lower than 6; return condition not met if it is lower.

- O=C(Nc1ccc(Oc2ccc([N+](=O)[O-])cn2)cc1C(=O)O)c1ccc(Cl)cc1Cl: condition met
- O=C(Nc1ccc(-c2ccco2)cc1C(=O)O)c1ccc(Cl)cc1Cl: condition met
- O=C(Nc1ccc(Oc2ncccc2[N+](=O)[O-])cc1C(=O)O)c1ccc(Cl)cc1Cl: condition met
- O=C(Nc1ccc(Oc2ncccn2)cc1C(=O)O)c1ccc(Cl)cc1Cl: condition met
- CCOc1ccc(COc2ccc(NC(=O)c3ccc(Cl)cc3Cl)c(C(=O)O)c2)cc1: condition not met
- Cc1ccc(NC(=O)c2ccc(Cl)cc2Cl)c(C(=O)O)c1: condition not met
- O=C(Nc1ccc(Oc2cncc(Cl)n2)cc1C(=O)O)c1ccc(Cl)cc1Cl: condition met

---

molecular target: Peroxisome proliferator-activated receptor gamma (Homo sapiens); assay: Transactivation potency was measured by luciferase activity in Caco- 2/TC7 cells transiently co-transfected for the fusion-protein Gal4-PPAR gamma
Property Measured: EC50 (nM)

* O=C(Nc1ccc(OCc2cccs2)cc1C(=O)O)c1ccc(Cl)cc1Cl | 300
* O=C(Nc1ccc(OCCc2ccccn2)cc1C(=O)O)c1ccc(Cl)cc1Cl | 3200
* O=C(Nc1ccc(-c2ccsc2)cc1C(=O)O)c1ccc(Cl)cc1Cl | 700
* CCOc1cccc(-c2ccc(NC(=O)c3ccc(Cl)cc3Cl)c(C(=O)O)c2)c1 | 300
* O=C(Nc1ccc(Oc2ncccc2[N+](=O)[O-])cc1C(=O)O)c1ccc(Cl)cc1Cl | 400
* CCOc1ccc(COc2ccc(NC(=O)c3ccc(Cl)cc3Cl)c(C(=O)O)c2)cc1 | 700
* O=C(Nc1ccc(OCCc2cccs2)cc1C(=O)O)c1ccc(Cl)cc1Cl | 700
* O=C(Nc1ccc(-c2cccc3cccnc23)cc1C(=O)O)c1ccc(Cl)cc1Cl | 300
* O=C(Nc1ccc(Oc2ncccn2)cc1C(=O)O)c1ccc(Cl)cc1Cl | 1300
* O=C(Nc1ccc(-c2ccco2)cc1C(=O)O)c1ccc(Cl)cc1Cl | 1000
* CSCCOc1ccc(NC(=O)c2ccc(Cl)cc2Cl)c(C(=O)O)c1 | 600
* O=C(Nc1ccc(OCCc2ccsc2)cc1C(=O)O)c1ccc(Cl)cc1Cl | 800
* O=C(Nc1ccc(Oc2cncc(Cl)n2)cc1C(=O)O)c1ccc(Cl)cc1Cl | 450
* O=C(Nc1ccc(Oc2ccc([N+](=O)[O-])cn2)cc1C(=O)O)c1ccc(Cl)cc1Cl | 400
* Cc1ccc(NC(=O)c2ccc(Cl)cc2Cl)c(C(=O)O)c1 | 1600

---

molecular target: Peroxisome proliferator-activated receptor alpha (Homo sapiens); assay: Ligand binding affinity was determined by displacement of a tritiated tracer by the unlabeled compound to a GST-PPAR fusion protein for Peroxisome proliferator activated receptor alpha containing residues
pKi: −log10 of the molar value.
// pKi lookup, one value per entry
Property Measured: pKi

* CSCCOc1ccc(NC(=O)c2ccc(Cl)cc2Cl)c(C(=O)O)c1 | 4.72
* O=C(O)c1cccc(-c2ccc(NC(=O)c3ccc(Cl)cc3Cl)c(C(=O)O)c2)c1 | 4.17
* O=C(Nc1ccc(Oc2cncc(Cl)n2)cc1C(=O)O)c1ccc(Cl)cc1Cl | 4.68
* Cc1ccc(NC(=O)c2ccc(Cl)cc2Cl)c(C(=O)O)c1 | 4.52
* O=C(Nc1ccc(OCc2cccs2)cc1C(=O)O)c1ccc(Cl)cc1Cl | 4.60
* O=C(Nc1ccc(-c2ccco2)cc1C(=O)O)c1ccc(Cl)cc1Cl | 4.66
* O=C(Nc1ccc(-c2ccsc2)cc1C(=O)O)c1ccc(Cl)cc1Cl | 4.55
* O=C(Nc1ccc(OCCc2ccsc2)cc1C(=O)O)c1ccc(Cl)cc1Cl | 4.70

---

// pKi lookup, one value per entry
target: Peroxisome proliferator-activated receptor gamma (Homo sapiens, UniProt P37231); assay: Ligand binding affinity was determined by displacement of a tritiated tracer by the unlabeled compound to a GST-PPAR fusion protein for Peroxisome proliferator activated receptor gamma containing residues
pKi: −log10 of the molar value.
Property Measured: pKi

- O=C(Nc1ccc(OCCc2ccccn2)cc1C(=O)O)c1ccc(Cl)cc1Cl: 5.82
- O=C(Nc1ccc(OCCc2cccs2)cc1C(=O)O)c1ccc(Cl)cc1Cl: 6.00
- O=C(Nc1ccc(-c2ccsc2)cc1C(=O)O)c1ccc(Cl)cc1Cl: 6.05
